Taken from ChEMBL document CHEMBL4261536.

System: PC-3
Assay: Cytotoxicity against human PC3 cells assessed as decrease in cell viability after 72 hrs by MTT assay
Assay type: functional, cell-based
Settings: PC-3, 72 h
Value Kind: pIC50
// pIC50 here means minus log10 of the molar concentration (mol/L)

Task item: Supply recorded pIC50 for CC1(C)CC2=C(O1)c1ccccc1C(=O)C2=O here.
Reply: 5.84

* * *

Tested on: SF-295
Experiment: Cytotoxicity against human SF295 cells assessed as decrease in cell viability using compound loaded PLGA microcapsule after 72 hrs by MTT assay
Assay type: functional, cell-based
Settings: SF-295, 72 h
Value Kind: pIC50
// pIC50 here means minus log10 of the molar concentration (mol/L)

Task item: Supply recorded pIC50 for CC1(C)CC2=C(O1)c1ccccc1C(=O)C2=O here.
Reply: 5.13

* * *

System: OVCAR-8
Experiment: Cytotoxicity against human OVCAR8 cells assessed as decrease in cell viability after 72 hrs by MTT assay
Format: functional, cell-based
Settings: OVCAR-8, 72 h
Value Kind: pIC50
// pIC50 here means minus log10 of the molar concentration (mol/L)

COc1cccc2c1C(=O)c1c(O)c3c(c(O)c1C2=O)C[C@@](O)(C(=O)CO)C[C@@H]3O[C@H]1C[C@H](N)[C@H](O)[C@H](C)O1 [DOXORUBICIN] ... 6.21

Task item: Supply recorded pIC50 for CC1(C)CC2=C(O1)c1ccccc1C(=O)C2=O [NOR-BETA-LAPACHONE] here.
Reply: 5.59
